FYI, the data here is from ChEMBL document CHEMBL1201862.

Tested on: HOP-92
PROCEDURE_TEXT: NCI tumour cell line growth inhibition, 48 h
Calls of active or inactive are those of the source. No stated cut-off is given here; in the data, active = GI50 up to about 1.1 µM and inactive = higher. Where a SMILES comes first, the peptide text is derived from it. [ ]: non-standard residue; d: D form. The star is where a group is joined. Cbz = O=C(OCc1ccccc1)*; Aib = CC(C)(N)C(=O)O; OBn = c1ccc(CO*)cc1
Possible outcomes: YES (active), NO (inactive)

1) CC1C(O)=C(O)c2ccccc2N1O (stereo not drawn); NO
2) COc1ccc(C2=C(N)c3ncccc3C2=O)cc1; NO
3) COc1cc(CCc2ccc(OCCN(C)C)cc2)cc(OC)c1OC; NO
4) Oc1cccc2c(Cl)ccnc12; NO
5) c1ccc2c(Nc3ncco3)cccc2c1; NO
6) CC(NC(=O)C(C)(C)NC(=O)C(CC(=O)OCc1ccccc1)NC(=O)OCc1ccccc1)C(N)=O (stereo not drawn) (Cbz-Asp(OBn)-[Aib]-Ala-NH2; configuration not given here); NO
7) O=C(/C=C/c1ccc2c(c1)OCO2)NCCc1ccco1; NO
8) Cc1[nH]c2ncn3[nH]c(=S)nc3c2c1Cc1ccccc1; NO
9) CCNC(=O)C#CC(=O)NCC; NO
10) Cn1c(=O)c2[nH]cnc2n(CC(N)=O)c1=O; NO
11) C=Cc1cc(OC)c2c(c1)c(=O)oc1c2cc(OC)c2c(O)ccc(C3OC(C)C(O)C(C)(O)C3O)c21 (stereo not drawn); YES
12) Cc1ncc([N+](=O)[O-])n1CCNS(=O)(=O)CCCn1ncnc1[N+](=O)[O-]; NO
13) COC(=O)C12C(=O)O[C@H](C)C1(O)C(C)C(=O)N2C (stereo partly drawn); YES
14) CN(C)CCCNC(=O)c1cccc2nc3ccccc3nc12; NO
15) Cc1nc(O)nc2nc3ccc(Cl)cc3c(NC(C)(CO)CO)c12; NO
16) O=CNc1ccc2c(c1)C(=O)c1ccccc1-2; NO
17) Cc1cc2c(=O)c3ccccc3[nH]c2c(C(=O)O)c1C; YES
18) CCOC(=O)NC(Nc1c(F)c(F)c(F)c(F)c1F)(C(F)(F)F)C(F)(F)F; NO

* * *

System: HOP-62
PROCEDURE_TEXT: NCI tumour cell line growth inhibition, 48 h
Activity calls are given as the source filed them. No stated cut-off is given here; in the data, active = GI50 up to about 1.1 µM and inactive = higher.
This section presents molecules with their documented GI50 values.
REPORTED_METRIC: GI50

1) c1ccc2c(c1)c1c(n2CCOCCN2CCCCC2)CCCC1; 15.1 µM (inactive)
2) C/N=C/N(C)c1c2ccccc2nc2ccccc12; > 100 µM (inactive)
3) C=C1CN(C2=NCCO2)C1; > 100 µM (inactive)
4) Cc1nc2ccccc2c(=O)n1/N=C(\N=N\c1ccc(Cl)cc1)c1ccc(N(C)C)cc1; 66.4 µM (inactive)
5) CCN(CC)CCCC(C)Nc1ccnc2ccc3nn(C)nc3c12 (centres undefined); 76.6 µM (inactive)
6) Cc1nc2c(=O)n(C)ncc2[nH]1; > 100 µM (inactive)
7) c1ccc(CN[C@]23C4C5CC6C7C5C2C7[C@@](NCc2ccccc2)(C64)N3Cc2ccccc2)cc1 (some centres undefined); > 100 µM (inactive)
8) CC(=O)N1CCN(C23OC4(N5CCN(C(C)=O)CC5)C5C6CC(C7C6C4C72)C53)CC1 (centres undefined); > 100 µM (inactive)
9) CCN(CC)CCN1CCc2c([nH]c3ccccc23)C1c1cccnc1 (centres undefined); > 100 µM (inactive)

* * *

Tested on: SNB-19
PROCEDURE_TEXT: NCI tumour cell line growth inhibition, 48 h
Activity calls are given as the source filed them. No stated cut-off is given here; in the data, active = GI50 up to about 1.1 µM and inactive = higher.
Form field: GI50 (one value per entry).
REPORTED_METRIC: GI50

1) Cc1cc(N(CCC#N)CCC#N)ccc1/C=C(/NC(=O)/C=C/c1ccccc1)C(N)=O; > 100 µM (inactive)
2) C/C(=C/C(=O)N(C)c1ccccc1Cl)O[Si](C(C)C)(C(C)C)C(C)C; 23.7 µM (inactive)
3) CC(=O)SC(SC(C)=O)SC(C)=O; > 100 µM (inactive)
4) COc1ccc(C2=Nc3ccccc3N=C(SC)C2)cc1; > 100 µM (inactive)
5) O=C(Nc1noc(-c2ccccc2)n1)c1ccccc1CNc1noc(-c2ccccc2)n1; > 100 µM (inactive)
6) CN(C)CCCSc1c2ccccc2nc2cc(NCC(=O)Nc3ccccc3-c3ccccc3NC(=O)CNc3ccc4c(SCCCN(C)C)c5ccccc5nc4c3)ccc12; > 100 µM (inactive)
7) CCOC(=O)NC(Nc1c(F)c(F)c(F)c(F)c1F)(C(F)(F)F)C(F)(F)F; > 100 µM (inactive)
8) CC(=O)Nc1ccc(COC(O)CN2CCCCC2)cc1[N+](=O)[O-] (centres undefined); > 100 µM (inactive)
9) CC(C)CN1CN(c2ccccc2)C2(CCN(CC(C)(c3ccc(F)cc3)C3OCCO3)CC2)C1=O (centres undefined); 7.21 µM (inactive)
10) C/C(=N\NC(=S)N1CCCCC1)c1nc2cccnc2[nH]1; 15.7 µM (inactive)
11) Cc1nc(O)nc2nc3ccc(Cl)cc3c(NC(C)(CO)CO)c12; 45.2 µM (inactive)
12) [N-]=[N+]=CC(=O)OC(CCl)CCl; > 100 µM (inactive)
13) CC1=Nc2sc3c(c2C2=NCCN12)CCCC3; 39.6 µM (inactive)
14) CCOC(=O)C1S/C(=N\c2ccc(Cl)cc2)N=C1C (centres undefined); 19.2 µM (inactive)

* * *

System: COLO 205
PROCEDURE_TEXT: NCI tumour cell line growth inhibition, 48 h
Active and inactive are the calls of the source. Cut-off read from the data, not from the text of the source: active = GI50 up to about 1.1 µM and inactive = higher.
Property: GI50; scope: individual compounds
REPORTED_METRIC: GI50

1) CC(C)CC1c2[nH]c3ccccc3c2C[C@H]2C(=O)NC(Cc3c[nH]c4ccccc34)C(=O)N12 (stereo partly drawn); 17.8 µM (inactive)
2) C/N=C/N(C)c1c2ccccc2nc2ccccc12; > 100 µM (inactive)
3) CC(=O)OC1CC(O)CC2=CCC3C4CCC(C(C)(O)C(O)CC5COC(=O)C5C)C4(C)CCC3C21C (stereo not drawn); > 25 µM (inactive)
4) CC(C)C(Nc1c2ccccc2[n+]([O-])c2ccccc12)C(=O)O (stereo not drawn); 52.5 µM (inactive)
5) COc1ccc(Oc2nc(C#CC(C)(C)O)nc(Oc3ccc(OC)cc3)n2)cc1; 3.59 µM (inactive)
6) COC(=O)C#CC1(O)C=CC(=O)C=C1; 2.41 µM (inactive)
7) CC(=O)C1C(c2ccccc2)C2(C)OC(=O)C(C#N)C12C (stereo not drawn); > 100 µM (inactive)
8) CCOC(=O)c1cnccc1CC1(C#N)c2ccccc2C=CN1C(=O)c1ccccc1 (stereo not drawn); 28.2 µM (inactive)

* * *

Test system: M14
PROCEDURE_TEXT: NCI tumour cell line growth inhibition, 48 h
Active and inactive are the calls of the source. Rule as the data show it: active = GI50 up to about 1.1 µM and inactive = higher.
Reported values of GI50 for individual entries
REPORTED_METRIC: GI50

1) CCOC(CBr)OC1C(=O)OCC1(C)C (stereo not given); > 100 µM (inactive)
2) Clc1ccc(-n2nnc(C3=NCCCN3)c2-c2ccccc2)cc1; > 100 µM (inactive)
3) Cc1cc(N(CCC#N)CCC#N)ccc1/C=C(/NC(=O)/C=C/c1ccccc1)C(N)=O; > 100 µM (inactive)
4) Cc1ccc([Se](=C(C(=O)c2ccccc2)C(=O)c2ccccc2)c2ccc(C)cc2)cc1; 33.6 µM (inactive)
5) N#CCCN(CCC#N)c1ccc(C(=N/c2ccc(F)cc2)/N=N/c2ccccc2)cc1; > 100 µM (inactive)

* * *

Test system: SNB-19
PROCEDURE_TEXT: NCI tumour cell line growth inhibition, 48 h
Activity calls are given as the source filed them. No stated cut-off is given here; in the data, active = GI50 up to about 1.1 µM and inactive = higher. Where a SMILES comes first, the peptide text is derived from it. The star is where a group is joined. Boc = CC(C)(C)OC(=O)*; OSu = O=C1CCC(=O)N1O*
REPORTED_METRIC: GI50

1) CC(C)(C)OC(=O)NC(Cc1ccc(O)cc1)C(=O)NC(CCCCN)C(=O)NC(Cc1ccc(O)cc1)C(=O)NC(CCCCN)C(=O)ON1C(=O)CCC1=O (stereo not given) (Boc-YKYK-OSu; configuration not given here); > 100 µM (inactive)
2) CCCNC1=Nc2ccccc2N(Cc2ccccc2)CC1; 22.2 µM (inactive)
3) Cn1cnc2nc(Cl)nc(NC(C)(C)C(C)(C)O)c21; > 100 µM (inactive)
4) COC(=O)c1cc2c3c(ccc2[nH]1)N(C(=O)c1cc2cc(OC)c(OC)c(OC)c2[nH]1)CC3CCl (stereo not given); > 100 µM (inactive)
5) CC(C)(CCC(C)(C)c1ccccc1)c1ccccc1; 18.3 µM (inactive)

* * *

System: TK-10
PROCEDURE_TEXT: NCI tumour cell line growth inhibition, 48 h
Active and inactive are the calls of the source. Cut-off read from the data, not from the text of the source: active = GI50 up to about 1.1 µM and inactive = higher.
REPORTED_METRIC: GI50

1) C/C(=N\NC(N)=O)C(CN(C)C)C(c1ccccc1)c1c(O)c2ccccc2oc1=O (configuration not stated); > 100 µM (inactive)
2) C=C1c2nc3ccccc3n2C=C(c2ccc(Cl)cc2)N1c1ccccc1; 12.4 µM (inactive)
3) CN(C)CCCSc1c2ccccc2nc2cc(NCC(=O)Nc3ccccc3-c3ccccc3NC(=O)CNc3ccc4c(SCCCN(C)C)c5ccccc5nc4c3)ccc12; > 100 µM (inactive)
4) CNC(=O)c1ccccc1-[s+]1c2ccccc2c(=O)n1C (configuration not stated); > 100 µM (inactive)
5) COc1ncc(C#CC(=O)c2ccccc2OC)c(OC)n1; 0.891 µM (active)
6) CC1=C2CC(C)(C)/C=C\C(=O)/C(C)=C\C3=C[C@H](C)C[C@]3(O2)C1=O; 2.03 µM (inactive)
7) O=C1CC(=O)NC(NN2C(=O)/C(=C/c3ccc(Cl)cc3)N=C2c2ccccc2)=N1; 16.5 µM (inactive)
